Assayed system: FGFR3-BAIAP2L1 Ba/F3 cells (Homo sapiens, UniProt P22607)
Sequence (P22607 23-806 limits assumed, change not shown): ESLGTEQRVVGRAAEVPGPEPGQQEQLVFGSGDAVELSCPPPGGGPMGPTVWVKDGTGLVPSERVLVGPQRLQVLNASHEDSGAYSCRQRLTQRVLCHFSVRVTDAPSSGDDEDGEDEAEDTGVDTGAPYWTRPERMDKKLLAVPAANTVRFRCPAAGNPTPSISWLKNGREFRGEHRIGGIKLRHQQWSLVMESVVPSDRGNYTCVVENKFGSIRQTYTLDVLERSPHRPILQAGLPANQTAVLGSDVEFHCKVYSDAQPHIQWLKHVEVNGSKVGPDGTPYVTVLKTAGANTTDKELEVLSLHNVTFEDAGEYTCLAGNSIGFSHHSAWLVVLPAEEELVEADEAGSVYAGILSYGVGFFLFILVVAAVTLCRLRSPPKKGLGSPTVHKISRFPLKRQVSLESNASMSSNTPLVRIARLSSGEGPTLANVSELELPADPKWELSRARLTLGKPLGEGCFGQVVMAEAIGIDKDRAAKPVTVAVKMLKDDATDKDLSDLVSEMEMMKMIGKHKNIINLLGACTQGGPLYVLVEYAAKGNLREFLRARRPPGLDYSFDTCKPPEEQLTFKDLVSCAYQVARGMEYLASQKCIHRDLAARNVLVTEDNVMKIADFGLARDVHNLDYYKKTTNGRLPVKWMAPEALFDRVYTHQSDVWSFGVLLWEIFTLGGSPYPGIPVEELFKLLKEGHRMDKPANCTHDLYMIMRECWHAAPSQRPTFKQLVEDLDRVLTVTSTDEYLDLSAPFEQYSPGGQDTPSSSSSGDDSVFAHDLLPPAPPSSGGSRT
Test: Ba/F3 cell viability assay (CellTiter-Glo 2.0), FGFR3-BAIAP2L1 Ba/F3
Format: cell-based
Condition details: read-out: Ba/F3 Cells FGFR3 (IC50 nM); FGFR3-BAIAP2L1 Ba/F3 cells, 48 hours, Cell Titer Glo 2.0
Here the recorded IC50 is given for each entry.
Measured endpoint: IC50

>  <Smiles structure>
C[C@@H](Oc1ccc2[nH]nc(-c3ccc(N4CCNC(=O)C4)nc3)c2c1)c1c(Cl)cncc1Cl

>  <Measured endpoint>
IC50

>  <Result>
1 to 20 nM

$$$$
>  <Smiles structure>
C[C@@H](Oc1ccc2[nH]nc(-c3ccc(N4CCC5(CCCN5C)CC4)nc3)c2c1)c1c(Cl)cncc1Cl

>  <Measured endpoint>
IC50

>  <Result>
1 to 20 nM

$$$$
>  <Smiles structure>
C[C@@H](Oc1ccc2[nH]nc(-c3cnc(N4CCC5(CC4)C(=O)NCCN5C)nc3)c2c1)c1c(Cl)cncc1Cl

>  <Measured endpoint>
IC50

>  <Result>
20 to 100 nM

$$$$
>  <Smiles structure>
COC(=O)N1CCN(c2ccc(-c3n[nH]c4ccc(O[C@H](C)c5c(Cl)cncc5Cl)cc34)cn2)CC1

>  <Measured endpoint>
IC50

>  <Result>
20 to 100 nM

$$$$
>  <Smiles structure>
C[C@@H](Oc1ccc2[nH]nc(-c3ccc(N4CC5(CCS(=O)(=O)C5)C4)nc3)c2c1)c1c(Cl)cncc1Cl

>  <Measured endpoint>
IC50

>  <Result>
1 to 20 nM

$$$$
>  <Smiles structure>
C[C@@H](Oc1ccc2[nH]nc(-c3ccc(N4CCS(=O)(=O)CC4)nc3)c2c1)c1c(Cl)cncc1Cl

>  <Measured endpoint>
IC50

>  <Result>
1 to 20 nM

$$$$
>  <Smiles structure>
C[C@@H](Oc1ccc2[nH]nc(-c3ccc(N4CC5(CCCS(=O)(=O)C5)C4)nc3)c2c1)c1c(Cl)cncc1Cl

>  <Measured endpoint>
IC50

>  <Result>
1 to 20 nM

$$$$

---

Assayed system: FGFR2 (Homo sapiens (Human), UniProt P21802)
Sequence (P21802 22-821): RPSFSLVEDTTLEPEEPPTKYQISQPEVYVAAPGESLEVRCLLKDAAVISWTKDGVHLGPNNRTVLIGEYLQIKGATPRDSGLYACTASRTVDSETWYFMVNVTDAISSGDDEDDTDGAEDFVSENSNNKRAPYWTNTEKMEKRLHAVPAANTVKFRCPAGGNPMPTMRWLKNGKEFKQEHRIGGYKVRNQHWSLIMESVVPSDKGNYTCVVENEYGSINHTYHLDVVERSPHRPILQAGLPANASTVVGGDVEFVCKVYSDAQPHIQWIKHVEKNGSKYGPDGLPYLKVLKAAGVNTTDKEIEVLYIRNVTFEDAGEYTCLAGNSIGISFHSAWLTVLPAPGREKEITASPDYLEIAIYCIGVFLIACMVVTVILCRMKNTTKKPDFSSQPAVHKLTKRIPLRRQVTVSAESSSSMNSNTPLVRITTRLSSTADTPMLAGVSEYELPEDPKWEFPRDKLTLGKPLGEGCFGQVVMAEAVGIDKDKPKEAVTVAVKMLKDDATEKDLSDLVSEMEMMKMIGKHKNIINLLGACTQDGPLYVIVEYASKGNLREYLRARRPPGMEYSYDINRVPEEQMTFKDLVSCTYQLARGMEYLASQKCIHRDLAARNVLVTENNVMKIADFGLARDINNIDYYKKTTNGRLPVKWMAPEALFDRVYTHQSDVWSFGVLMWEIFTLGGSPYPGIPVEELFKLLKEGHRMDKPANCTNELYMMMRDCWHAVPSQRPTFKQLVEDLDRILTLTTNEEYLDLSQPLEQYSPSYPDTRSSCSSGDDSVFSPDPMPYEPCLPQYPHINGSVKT
Test: Kinase assay, binding constants (Kd), kinase-tagged T7 phage, qPCR
Consider the following compounds and their measured Kd readings.
Measured endpoint: Kd

>  <Compound>
Cc1cnnc(C)c1[C@H](C)Oc1ccc2[nH]nc(-c3cnc(N4CC5(C4)CN(S(C)(=O)=O)C5)nc3)c2c1

>  <Measured endpoint>
Kd

>  <Result>
> 300 nM

$$$$
>  <Compound>
C[C@@H](Oc1ccc2[nH]nc(-c3ccc(N4CC5(CCN(S(C)(=O)=O)C5)C4)nc3)c2c1)c1c(Cl)cncc1Cl [Example 163]

>  <Measured endpoint>
Kd

>  <Result>
1 to 20 nM

$$$$
>  <Compound>
C[C@@H](Oc1ccc2[nH]nc(-c3ccc(N4CC5(CN(C(=O)N(C)C)C5)C4)nc3)c2c1)c1c(Cl)cncc1Cl

>  <Measured endpoint>
Kd

>  <Result>
1 to 20 nM

$$$$
>  <Compound>
Cc1ncc(Cl)c([C@@H](C)Oc2ccc3[nH]nc(-c4ccc(N5CC6(CNC6)C5)nc4)c3c2)c1Cl

>  <Measured endpoint>
Kd

>  <Result>
20 to 100 nM

$$$$
